target under test: EGFR (Homo sapiens, UniProt P00533)
Construct: purchased Carna Biosciences, Inc
Sequence (P00533 25-1210): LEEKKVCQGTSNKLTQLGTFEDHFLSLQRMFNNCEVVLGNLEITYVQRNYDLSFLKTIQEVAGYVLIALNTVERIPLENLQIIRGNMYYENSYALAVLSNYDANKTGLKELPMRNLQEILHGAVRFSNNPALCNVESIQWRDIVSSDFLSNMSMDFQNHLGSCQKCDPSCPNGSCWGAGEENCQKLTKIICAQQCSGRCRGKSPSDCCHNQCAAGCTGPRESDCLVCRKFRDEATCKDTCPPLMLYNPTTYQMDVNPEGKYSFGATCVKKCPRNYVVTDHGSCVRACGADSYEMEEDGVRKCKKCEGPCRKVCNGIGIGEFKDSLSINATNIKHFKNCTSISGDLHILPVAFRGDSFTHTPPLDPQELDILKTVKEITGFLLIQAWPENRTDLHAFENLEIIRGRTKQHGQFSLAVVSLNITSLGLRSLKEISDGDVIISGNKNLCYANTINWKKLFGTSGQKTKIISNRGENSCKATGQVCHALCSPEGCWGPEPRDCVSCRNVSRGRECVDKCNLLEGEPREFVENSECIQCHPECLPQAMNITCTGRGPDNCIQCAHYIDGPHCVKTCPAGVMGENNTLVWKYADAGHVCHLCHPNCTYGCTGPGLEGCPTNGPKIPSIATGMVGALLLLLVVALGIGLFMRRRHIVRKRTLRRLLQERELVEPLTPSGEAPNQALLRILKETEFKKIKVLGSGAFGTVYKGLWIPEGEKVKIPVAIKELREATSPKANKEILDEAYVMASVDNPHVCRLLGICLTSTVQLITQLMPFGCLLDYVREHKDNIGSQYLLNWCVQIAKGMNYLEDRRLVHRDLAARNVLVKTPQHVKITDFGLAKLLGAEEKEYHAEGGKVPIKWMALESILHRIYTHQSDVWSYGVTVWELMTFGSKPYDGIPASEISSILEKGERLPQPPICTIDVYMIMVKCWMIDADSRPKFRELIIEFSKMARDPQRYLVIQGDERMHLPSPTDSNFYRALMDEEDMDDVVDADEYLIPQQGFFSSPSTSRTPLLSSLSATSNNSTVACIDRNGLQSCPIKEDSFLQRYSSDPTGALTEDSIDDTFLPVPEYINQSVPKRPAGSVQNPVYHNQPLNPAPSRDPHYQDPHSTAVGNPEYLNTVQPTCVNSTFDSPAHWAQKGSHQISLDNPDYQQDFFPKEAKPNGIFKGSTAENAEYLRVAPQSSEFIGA
test protocol: Phosphorylation activity inhibitory effect (in vitro) on wild-type EGFR
Type: biochemical
parameter: IC50 (nM)
Reply with just the number (in nM).

Form field, IC50 with EGFR (Homo sapiens, UniProt P00533), item C=CC(=O)N1C[C@H](n2c(C#CC3CC3)c(C(=O)N[C@H](C)c3ccccc3)c3c(N)ncnc32)C[C@@H]1C : 0.47

###

target under test: EGFR [T790M/L858R] (Homo sapiens, UniProt P00533, L858R/T790M)
Sequence (P00533 25-1210 T790M/L858R): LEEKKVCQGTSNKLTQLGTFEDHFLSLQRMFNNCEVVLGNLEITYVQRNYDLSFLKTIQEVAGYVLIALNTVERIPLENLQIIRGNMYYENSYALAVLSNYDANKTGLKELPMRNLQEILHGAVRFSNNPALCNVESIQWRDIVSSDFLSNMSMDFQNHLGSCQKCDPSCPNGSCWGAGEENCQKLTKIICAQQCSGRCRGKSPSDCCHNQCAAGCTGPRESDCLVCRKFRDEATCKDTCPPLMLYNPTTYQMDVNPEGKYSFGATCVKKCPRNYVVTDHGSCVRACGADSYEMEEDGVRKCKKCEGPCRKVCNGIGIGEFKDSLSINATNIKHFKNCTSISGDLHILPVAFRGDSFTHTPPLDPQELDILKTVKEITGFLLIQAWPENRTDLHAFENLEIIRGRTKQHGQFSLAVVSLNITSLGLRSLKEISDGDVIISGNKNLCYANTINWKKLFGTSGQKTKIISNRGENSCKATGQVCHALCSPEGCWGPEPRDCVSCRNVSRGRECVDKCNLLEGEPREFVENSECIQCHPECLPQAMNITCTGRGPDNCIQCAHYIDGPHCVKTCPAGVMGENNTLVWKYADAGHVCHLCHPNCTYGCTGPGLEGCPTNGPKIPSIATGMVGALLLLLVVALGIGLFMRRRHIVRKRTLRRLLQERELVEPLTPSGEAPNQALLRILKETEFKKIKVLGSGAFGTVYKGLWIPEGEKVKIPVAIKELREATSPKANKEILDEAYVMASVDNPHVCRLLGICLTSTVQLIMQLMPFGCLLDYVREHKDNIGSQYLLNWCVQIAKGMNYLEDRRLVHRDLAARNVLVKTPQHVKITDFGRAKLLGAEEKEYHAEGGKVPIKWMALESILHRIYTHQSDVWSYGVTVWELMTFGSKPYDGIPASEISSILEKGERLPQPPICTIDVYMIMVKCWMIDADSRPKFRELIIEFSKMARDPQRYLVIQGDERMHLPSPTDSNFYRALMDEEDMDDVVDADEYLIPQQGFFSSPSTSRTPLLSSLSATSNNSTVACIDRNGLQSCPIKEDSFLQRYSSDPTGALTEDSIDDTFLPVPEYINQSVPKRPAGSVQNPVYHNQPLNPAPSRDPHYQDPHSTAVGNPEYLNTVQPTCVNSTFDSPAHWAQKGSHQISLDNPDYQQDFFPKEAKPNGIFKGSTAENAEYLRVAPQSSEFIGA
test protocol: Phosphorylation activity inhibitory effect (in vitro) on mutant EGFR T790M/L858R
parameter: IC50

Just so you know, measured IC50 for C=CC(=O)N1C[C@H](n2c(C#CC3CC3)c(C(=O)N[C@H](C)c3ccccc3)c3c(N)ncnc32)C[C@@H]1C came out at 6.6 nM

###

target under test: EGFR [d746-750/T790M] (Homo sapiens, UniProt P00533, DEL746-750/T790M)
test protocol: Phosphorylation activity inhibitory effect (in vitro) on mutant EGFR d746-750/T790M
parameter: IC50 (nM)
Reply with just the number (in nM).

Just so you know, measured IC50 for C=CC(=O)N1C[C@H](n2c(C#CC3CC3)c(C(=O)N[C@H](C)c3ccccc3)c3c(N)ncnc32)C[C@@H]1C came out at 6.8

###

Tested on: SK-BR-3 cells
test protocol: Growth inhibitory activity against HER2 expressing cell line SK-BR-3
Assay type: cell-based
condition parameters: Homo sapiens, SK-BR-3, 72 h; 3 days, CellTiter-Glo 2.0
parameter: IC50 (nM)
Reply with just the number (in nM).

Just so you know, measured IC50 for C=CC(=O)N1C[C@H](n2c(C#CC3CC3)c(C(=O)N[C@H](C)c3ccccc3)c3c(N)ncnc32)C[C@@H]1C came out at 6.6

###

target under test: EGFR [d746-750] (Homo sapiens, UniProt P00533, DEL746-750)
Sequence (P00533 with tags, fused parts or gaps DEL746-750): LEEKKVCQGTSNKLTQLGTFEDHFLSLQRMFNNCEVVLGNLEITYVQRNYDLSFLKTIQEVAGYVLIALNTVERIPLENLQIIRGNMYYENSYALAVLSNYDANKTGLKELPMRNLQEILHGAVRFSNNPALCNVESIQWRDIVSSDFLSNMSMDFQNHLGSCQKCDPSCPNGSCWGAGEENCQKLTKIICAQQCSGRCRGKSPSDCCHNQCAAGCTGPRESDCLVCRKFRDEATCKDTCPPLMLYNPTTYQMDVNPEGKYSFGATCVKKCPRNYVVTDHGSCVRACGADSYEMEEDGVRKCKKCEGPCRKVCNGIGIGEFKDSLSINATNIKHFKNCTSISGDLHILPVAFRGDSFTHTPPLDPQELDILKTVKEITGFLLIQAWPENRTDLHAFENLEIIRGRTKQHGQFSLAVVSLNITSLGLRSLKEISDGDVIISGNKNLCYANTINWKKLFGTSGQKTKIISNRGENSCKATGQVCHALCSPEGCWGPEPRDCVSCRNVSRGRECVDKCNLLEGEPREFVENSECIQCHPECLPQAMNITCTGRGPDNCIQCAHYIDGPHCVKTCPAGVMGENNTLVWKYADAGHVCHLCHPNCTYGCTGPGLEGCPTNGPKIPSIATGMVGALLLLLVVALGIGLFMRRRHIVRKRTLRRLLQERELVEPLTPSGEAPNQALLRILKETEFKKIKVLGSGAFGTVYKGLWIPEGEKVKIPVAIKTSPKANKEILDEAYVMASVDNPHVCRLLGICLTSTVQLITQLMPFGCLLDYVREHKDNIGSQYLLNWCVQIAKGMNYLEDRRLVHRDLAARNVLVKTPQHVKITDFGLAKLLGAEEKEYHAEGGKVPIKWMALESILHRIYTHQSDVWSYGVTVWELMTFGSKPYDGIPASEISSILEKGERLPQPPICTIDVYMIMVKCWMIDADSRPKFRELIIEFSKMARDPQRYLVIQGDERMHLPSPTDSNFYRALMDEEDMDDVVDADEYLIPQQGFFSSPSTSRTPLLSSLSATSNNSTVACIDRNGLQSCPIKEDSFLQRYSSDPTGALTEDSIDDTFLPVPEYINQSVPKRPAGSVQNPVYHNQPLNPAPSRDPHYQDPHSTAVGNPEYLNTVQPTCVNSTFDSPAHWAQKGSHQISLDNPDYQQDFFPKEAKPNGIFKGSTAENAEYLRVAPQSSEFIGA
test protocol: Phosphorylation activity inhibitory effect (in vitro) on mutant EGFR d746-750
parameter: IC50 (nM)
Reply with just the number (in nM).

Form field, IC50 with EGFR [d746-750] (Homo sapiens, UniProt P00533, DEL746-750), item C=CC(=O)N1C[C@H](n2c(C#CC3CC3)c(C(=O)N[C@H](C)c3ccccc3)c3c(N)ncnc32)C[C@@H]1C : 0.25

###

target under test: human HER2 exon 20 insertion mutant (A775_G776insYVMA) protein (Homo sapiens, UniProt P04626, INS775YVMA)
Sequence (P04626 with tags, fused parts or gaps INS775YVMA limits assumed): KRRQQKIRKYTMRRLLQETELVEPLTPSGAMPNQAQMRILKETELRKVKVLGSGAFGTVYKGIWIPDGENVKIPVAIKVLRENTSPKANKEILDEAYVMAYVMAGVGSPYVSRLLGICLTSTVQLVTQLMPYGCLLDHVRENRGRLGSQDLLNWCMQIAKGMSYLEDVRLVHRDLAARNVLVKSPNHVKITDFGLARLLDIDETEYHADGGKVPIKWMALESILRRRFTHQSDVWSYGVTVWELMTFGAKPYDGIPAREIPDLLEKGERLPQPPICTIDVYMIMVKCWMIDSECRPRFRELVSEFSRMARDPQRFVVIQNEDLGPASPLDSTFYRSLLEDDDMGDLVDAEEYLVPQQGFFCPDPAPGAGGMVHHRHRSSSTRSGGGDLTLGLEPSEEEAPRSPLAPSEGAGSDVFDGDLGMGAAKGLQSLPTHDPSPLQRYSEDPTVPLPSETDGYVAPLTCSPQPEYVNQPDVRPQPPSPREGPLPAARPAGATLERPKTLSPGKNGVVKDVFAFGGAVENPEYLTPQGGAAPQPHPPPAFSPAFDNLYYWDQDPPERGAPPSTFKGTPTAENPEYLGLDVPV
test protocol: Inhibitory action (in vitro) against HER2 exon 20 insertion mutant phosphorylation activity
condition parameters: pre-incubated 30 minutes, ATP 200 μM, 25°C, 220 minutes; read-out: HER2ex20insYVMA inhibitory activity IC50 value
parameter: IC50

Just so you know, measured IC50 for CC#Cc1c(C(=O)N[C@H](C)c2ccccc2)c2c(N)ncnc2n1[C@@H]1C[C@H](C)N(C(=O)/C=C/C)C1 [Comp. Ex. 6, reference compound] came out at > 10000 nM

Just so you know, measured IC50 for C=CC(=O)N1C[C@H](n2c(C#CC3CC3)c(C(=O)N[C@H](C)c3ccccc3)c3c(N)ncnc32)C[C@@H]1C came out at < 0.3 nM

Just so you know, measured IC50 for C=CC(=O)N1C[C@H](n2c(C#CC)c(C(=O)N[C@@H](c3ccccc3)C(F)(F)F)c3c(N)ncnc32)C[C@@H]1C came out at < 0.3 nM

Just so you know, measured IC50 for CC#Cc1c(C(=O)Nc2ccc(COC)cc2)c2c(N)ncnc2n1C1(C)CC1 [Comp. Ex. 1, reference compound] came out at > 10000 nM

Just so you know, measured IC50 for C=CC(=O)N1C[C@H](n2c(C#CC3CC3)c(C(=O)N[C@H](C)c3ccccc3)c3c(N)ncnc32)C[C@@H]1COC came out at < 0.3 nM

Just so you know, measured IC50 for C=CC(=O)N1C[C@H](n2c(C#CC)c(C(=O)N[C@H](C)c3cccc(Cl)c3)c3c(N)ncnc32)C[C@@H]1C came out at < 0.3 nM

Just so you know, measured IC50 for C=CC(=O)N1C[C@H](n2c(C#CC)c(C(=O)NC(C)(C)c3ccccc3)c3c(N)ncnc32)C[C@@H]1C came out at < 0.3 nM

Just so you know, measured IC50 for C=CC(=O)N1C[C@H](n2c(C#CCC)c(C(=O)N[C@H](C)c3ccccc3)c3c(N)ncnc32)C[C@@H]1C came out at < 0.3 nM

Just so you know, measured IC50 for C=CC(=O)N1C[C@H](n2c(C#CC3CC3)c(C(=O)N[C@H](C)c3cccc(F)c3F)c3c(N)ncnc32)C[C@@H]1C came out at < 0.3 nM

Just so you know, measured IC50 for C=CC(=O)N1C[C@H](n2c(C#CC)c(C(=O)N[C@H](C)c3ccccc3)c3c(N)ncnc32)C[C@@H]1C came out at < 0.3 nM
